- System: A549-TUBA1B-RELA
- Assay details: phenotypically active (imaging signature differs from DMSO and reproducible) at any of 0.3-9 uM (binary (1 = active, 0 = inactive)); higher = active
- Measurement conditions: treatment time: 24 h
Where a name gives a salt, the structure may show the parent alone.
Outcome measure: phenotypically active

[[record]]
compound = "C[N+]1(C)CCC(=C(c2ccccc2)c2ccccc2)CC1"
tested_on = "A549-TUBA1B-RELA"
measured_value = "0 (inactive)"

[[record]]
compound = "CC(=O)O[C@H]1C[C@@H]2CC[C@@H]3[C@H](CC[C@@]4(C)[C@H]3C[C@H]([N+]3(C)CCCCC3)[C@@H]4OC(C)=O)[C@@]2(C)C[C@@H]1N1CCCCC1"
tested_on = "A549-TUBA1B-RELA"
measured_value = "0 (inactive)"

[[record]]
compound = "c1ccc2c(c1)CN1CCCC1=N2 [Desoxypeganine Hydrochloride]"
tested_on = "A549-TUBA1B-RELA"
measured_value = "0 (inactive)"

[[record]]
compound = "COc1cc(O)c2c(c1C1CCCN1)OC(c1ccc(O)cc1)CC2 (stereo not drawn) [Vochysine (4 dia/énantio)]"
tested_on = "A549-TUBA1B-RELA"
measured_value = "0 (inactive)"

[[record]]
compound = "c1ccc(CC2=NCCN2)cc1"
tested_on = "A549-TUBA1B-RELA"
measured_value = "0 (inactive)"

[[record]]
compound = "COCC(=O)O[C@]1(CCN(C)CCCc2nc3ccccc3[nH]2)CCc2cc(F)ccc2[C@@H]1C(C)C"
tested_on = "A549-TUBA1B-RELA"
measured_value = "1 (active)"

[[record]]
compound = "CCOP(=O)(OCC)C(=Cc1cc(C(C)(C)C)c(O)c(C(C)(C)C)c1)P(=O)(OCC)OCC"
tested_on = "A549-TUBA1B-RELA"
measured_value = "0 (inactive)"

[[record]]
compound = "COc1cc(C[C@H]2C(=O)OC[C@@H]2Cc2ccc(OC)c(OC)c2)ccc1O"
tested_on = "A549-TUBA1B-RELA"
measured_value = "1 (active)"

[[record]]
compound = "COc1cc2nc(N3CCCN(C)CC3)nc(NC3CCN(Cc4ccccc4)CC3)c2cc1OC"
tested_on = "A549-TUBA1B-RELA"
measured_value = "1 (active)"

[[record]]
compound = "CC1=C(CC(=O)O)c2cc(F)ccc2/C1=C\\c1ccc(S(C)=O)cc1 (stereo not drawn)"
tested_on = "A549-TUBA1B-RELA"
measured_value = "0 (inactive)"

[[record]]
compound = "CC(=O)N[C@@H]1[C@@H](O[C@H](C)C(=O)O)[C@H](O)[C@@H](CO)O[C@@H]1O"
tested_on = "A549-TUBA1B-RELA"
measured_value = "0 (inactive)"

[[record]]
compound = "O=C(O)CCN(O)C(=O)CCCCCCCCC1CC1"
tested_on = "A549-TUBA1B-RELA"
measured_value = "0 (inactive)"

[[record]]
compound = "OC[C@H]1O[C@@H](n2cnc3c(NCc4ccco4)ncnc32)[C@H](O)[C@@H]1O [Kinetin riboside]"
tested_on = "A549-TUBA1B-RELA"
measured_value = "1 (active)"

[[record]]
compound = "Nc1nnc(-c2cccc(Cl)c2Cl)c(N)n1"
tested_on = "A549-TUBA1B-RELA"
measured_value = "0 (inactive)"

[[record]]
compound = "NC12CC3CC(CC(C3)C1)C2"
tested_on = "A549-TUBA1B-RELA"
measured_value = "0 (inactive)"

[[record]]
compound = "COc1cc2c(cc1OC)C(=O)C(CC1CCN(Cc3ccccc3)CC1)C2 (stereo not drawn)"
tested_on = "A549-TUBA1B-RELA"
measured_value = "0 (inactive)"

[[record]]
compound = "CC1(COc2ccc(CC3SC(=O)NC3=O)cc2)CCCCC1 (stereo not drawn)"
tested_on = "A549-TUBA1B-RELA"
measured_value = "0 (inactive)"

[[record]]
compound = "Cn1cnc(N)c2ncnc1-2"
tested_on = "A549-TUBA1B-RELA"
measured_value = "0 (inactive)"

